Tested on: NCI-H226 lung
Assay Remarks: NCI tumour cell line growth inhibition, 48 h
Measurement Type: TGI

Exercise: Name the reported TGI value associated with the compound CCOC(=O)CC1C(CNC(=O)NC)OC(n2cnc3c(NC(=O)Nc4ccccc4)ncnc32)C1O[Si](C)(C)C(C)(C)C (stereo not drawn)
Key: > 100 µM

Exercise: Name the reported TGI value associated with the compound COc1ccccc1N1CCN(CC(O)Cn2c(=O)c3c(OC)nc(C)cc3c(=O)n2-c2ccccc2)CC1 (stereo not drawn)
Key: > 100 µM

Exercise: Name the reported TGI value associated with the compound N#Cc1n[nH]n(-c2ccccc2)c1=O
Key: > 100 µM

Exercise: Name the reported TGI value associated with the compound CCOc1ccc2c(c1)[n+]([O-])c(-c1ccc([N+](=O)[O-])cc1)c(N)[n+]2[O-]
Key: > 100 µM

Exercise: Name the reported TGI value associated with the compound O=C(Cc1ccccc1)N/N=C(/c1nc2ccc([N+](=O)[O-])cc2[nH]c1=O)C(O)c1ccco1 (stereo not drawn)
Key: > 100 µM

Exercise: Name the reported TGI value associated with the compound Clc1ccc2c(NCCNc3nc(N4CCCCC4)nc4ccccc34)ccnc2c1
Key: 4.05 µM

Exercise: Name the reported TGI value associated with the compound C/C(=N\NC(N)=S)C(CN1CCCCC1)C(C1=C(O)c2ccccc2OC1)c1ccccc1 (stereo not drawn)
Key: > 100 µM

Exercise: Name the reported TGI value associated with the compound NC(=S)N/N=C(/CCN1CCCC1)CC(C1=C(O)C2=CCCCC2OC1=O)c1ccccc1 (stereo not drawn)
Key: > 100 µM

Exercise: Name the reported TGI value associated with the compound CNC(=O)NCCCCC(NC(=O)OCc1ccccc1)C(=O)OCc1ccccc1 (stereo not drawn)
Key: > 100 µM

Exercise: Name the reported TGI value associated with the compound COc1ccc(-c2n[nH]c3nc4ccccc4n3c2=O)cc1
Key: > 100 µM

Exercise: Name the reported TGI value associated with the compound CCCCSCCC(N)P(=O)(O)O (stereo not drawn)
Key: > 100 µM

Exercise: Name the reported TGI value associated with the compound O=C(Cc1ccc(-c2ccc(OCCN3CCOCC3)cc2)cn1)NCc1ccccc1
Key: > 100 µM

Exercise: Name the reported TGI value associated with the compound Nc1nc(Cl)cc(NCC2(CO)CC=CC2)n1
Key: > 100 µM

Exercise: Name the reported TGI value associated with the compound Cc1nc2sc(C(=O)Nc3cccc(Cl)c3C)c(N)c2cc1C(O)c1ccccc1 (stereo not drawn)
Key: 22.8 µM

Exercise: Name the reported TGI value associated with the compound CN1CCN(c2ccc3nc(-c4ccc5nc(CCCc6ccc(N(CCCl)CCCl)cc6)[nH]c5c4)[nH]c3c2)CC1
Key: > 100 µM

Exercise: Name the reported TGI value associated with the compound O=c1c2cc(Br)ccc2n(C2OC(CO)C(O)C(O)C2O)c(=S)n1-c1ccccc1 (stereo not drawn)
Key: > 100 µM

Exercise: Name the reported TGI value associated with the compound COc1c(OC)c(OC)c2c(=O)c(OC)c(-c3ccc4c(c3)OCO4)oc2c1OC
Key: > 100 µM

Exercise: Name the reported TGI value associated with the compound CCCCc1n(Cc2ccc3ccccc3n2)cc[n+]1Cc1ccc2ccccc2c1
Key: 6.12 µM

Exercise: Name the reported TGI value associated with the compound CCCCCCCCCCCCCC/C(C(=O)O)=C(\C)C(=O)O
Key: > 100 µM

Exercise: Name the reported TGI value associated with the compound CCOC(=O)/C=C/C1=C(Br)[C@@]2(C)CC[C@@H]3c4ccc(O)cc4CC[C@H]3[C@@H]2C1
Key: 30.2 µM

Exercise: Name the reported TGI value associated with the compound CC(=O)Nc1ccc(S(=O)(=O)N/N=C(\C)CN2C(=O)c3ccccc3C2=O)cc1
Key: > 100 µM

Exercise: Name the reported TGI value associated with the compound N#CC(C(=S)Nc1ccccc1)=C1Nc2ccccc2N1
Key: > 10 µM

Exercise: Name the reported TGI value associated with the compound O=C1CNc2cc(N3CCCCC3)ccc2N1
Key: 37.3 µM

Exercise: Name the reported TGI value associated with the compound COc1ccccc1CC1(O)OC(=O)c2ccccc21 (stereo not drawn)
Key: > 100 µM

Exercise: Name the reported TGI value associated with the compound CC(CCCCNC(=O)OC(C)(C)C)NC(=O)NC(C)CCCCNC(=O)OC(C)(C)C (stereo not drawn)
Key: > 100 µM

Exercise: Name the reported TGI value associated with the compound CNc1cc(Cl)ccc1C(=O)N1CCC[C@H]1CO
Key: > 100 µM

Exercise: Name the reported TGI value associated with the compound COc1ccc(N2C(=O)C3c4[nH]c5ccc(OC)cc5c4C4CCC(c5ccccc5)CC4C3C2=O)cc1 (stereo not drawn)
Key: > 100 µM

Exercise: Name the reported TGI value associated with the compound CCOc1cc2cnc3c4cc(OC)c(OC)cc4ccc3c2cc1OC
Key: > 100 µM

###

System: ACHN renal
Assay Remarks: NCI tumour cell line growth inhibition, 48 h
What TGI was measured for each of the following?

Exercise: Name the reported TGI value associated with the molecule CN(C)C(=S)/N=C(\N)N(C)C
Key: > 100 µM

Exercise: Name the reported TGI value associated with the molecule O=c1c2cc(Br)ccc2n(C2OC(CO)C(O)C(O)C2O)c(=S)n1-c1ccccc1 (stereo not drawn)
Key: > 100 µM

Exercise: Name the reported TGI value associated with the molecule CCC12CN(C(=O)OC)C3C(Br)C1CCC(=O)C32 (stereo not drawn)
Key: > 100 µM

###

Test system: IGROV1 ovarian
Assay Remarks: NCI tumour cell line growth inhibition, 48 h
What TGI was measured for each of the following?

Exercise: Name the reported TGI value associated with the molecule O=C(NN1CCCCC1)c1cc2cc(CCl)ccc2oc1=O
Key: 42.7 µM

Exercise: Name the reported TGI value associated with the molecule COc1ccc(C(=O)c2cc(C)c(OC)c(C)c2)c(OC)c1OC(=O)C(Cl)Cl
Key: > 100 µM

Exercise: Name the reported TGI value associated with the molecule Oc1c(O)c(Cc2ccccc2)c(Cc2ccccc2)c(Cc2ccccc2)c1Cc1ccccc1
Key: > 10 µM

Exercise: Name the reported TGI value associated with the molecule CN(C)C(=S)/N=C(\N)N(C)C
Key: > 100 µM

Exercise: Name the reported TGI value associated with the molecule O=c1[nH]nc(Cc2ccc(Cl)cc2)n1CCO
Key: > 100 µM

Exercise: Name the reported TGI value associated with the molecule Cc1cc(=O)[nH]c(S(=O)(=O)NC(=O)Nc2cccc(Cl)c2)n1
Key: > 100 µM

Exercise: Name the reported TGI value associated with the molecule Cc1ccc(C2SCc3nc4ccccc4n32)cc1 (stereo unspecified)
Key: > 100 µM

Exercise: Name the reported TGI value associated with the molecule C/C(=N\NC(N)=S)C(CN1CCCCC1)C(C1=C(O)c2ccccc2OC1)c1ccccc1 (stereo unspecified)
Key: > 100 µM

Exercise: Name the reported TGI value associated with the molecule CN1CCC(n2cnc(-c3ccc(F)cc3)c2-c2ccnc(Nc3ccccc3)n2)CC1
Key: > 13.1 µM

Exercise: Name the reported TGI value associated with the molecule COc1ccc(-c2cncn2-c2ccc(-c3nc4cc(OC)c(OC)c(OC)c4s3)cc2)cc1N
Key: > 100 µM

Exercise: Name the reported TGI value associated with the molecule COc1ccc2c(ccc3oc([N+](=O)[O-])cc32)c1
Key: 3.47 µM

Exercise: Name the reported TGI value associated with the molecule COc1ccc2c3c1OC1C4(CCC5C(C2)N(CC2CC2)CCC351)OCCO4 (stereo unspecified)
Key: > 100 µM

Exercise: Name the reported TGI value associated with the molecule CN(CCN1C(=O)c2cccc3cccc(c23)C1=O)CCN1C(=O)c2cccc3cccc(c23)C1=O
Key: > 100 µM

Exercise: Name the reported TGI value associated with the molecule Cc1ccc([N+](=O)[O-])cc1NC(=O)/C(CC(=O)c1sc(C(N)=S)nc1C)=N\N
Key: > 100 µM

Exercise: Name the reported TGI value associated with the molecule Nc1nc(Cl)cc(NCC2(CO)CC=CC2)n1
Key: > 100 µM

Exercise: Name the reported TGI value associated with the molecule C=CCc1cccc(/C(O)=C/C(=O)/C=C/c2ccccc2Cl)c1O
Key: 29.6 µM

Exercise: Name the reported TGI value associated with the molecule O=C(Cc1ccccc1)N/N=C(/c1nc2ccc([N+](=O)[O-])cc2[nH]c1=O)C(O)c1ccco1 (stereo unspecified)
Key: > 100 µM

Exercise: Name the reported TGI value associated with the molecule Cc1[nH]c2[nH]c(=S)nc(NC(N)=S)c2c1Cc1ccccc1
Key: > 100 µM

Exercise: Name the reported TGI value associated with the molecule N#CC1=C(N)Oc2c(ccc3cccnc23)C1c1ccccc1 (stereo unspecified)
Key: > 100 µM

Exercise: Name the reported TGI value associated with the molecule Nc1ccccc1-n1c2c(c3ccccc3c1=O)C(=O)c1ccccc1-2
Key: > 100 µM

Exercise: Name the reported TGI value associated with the molecule CC(C)CCCC(C)[C@H]1CCC2C3CC=C4C[C@@H](OC(=O)CC(CC(=O)[O-])C(=O)[O-])CC[C@]4(C)C3CC[C@@]21C.N.N.[Pt+4] (stereo partly specified)
Key: > 100 µM

Exercise: Name the reported TGI value associated with the molecule CCOC(=O)C1=C(Nc2cccc3ccccc23)OCC1=O
Key: > 100 µM

Exercise: Name the reported TGI value associated with the molecule Clc1cccc(/C=c2\nc(-c3ccccc3)n3c2nc2ccccc23)c1
Key: > 100 µM

Exercise: Name the reported TGI value associated with the molecule COc1ccc(C#CC2=C(Br)C(=O)OC2)cc1
Key: > 50 µM

Exercise: Name the reported TGI value associated with the molecule O=C(Cn1c2c(c3ccccc31)CCCC2)N1CCOCC1
Key: > 100 µM

Exercise: Name the reported TGI value associated with the molecule COC(=O)C1OC(SCCN)C(O)C(O)C1O (stereo unspecified)
Key: > 100 µM
